- Conditions used: 338.15 K; 101.33 kPa; Liquid; Vibrating tube method
Could you please report measured mass density for the items listed next?
Dear colleague, please return just the value in kg/m3, with no unit written.

Quick one: mass density for CCCCCCCCCCCCCC[P+](CCCCCC)(CCCCCC)CCCCCC.O=[N+]([O-])c1c[n-]cn1 [trihexyl(tetradecyl)phosphonium 4-nitroimidazolide] ?
916.9

Now this one: CCCCCCCC[P+](CC)(CC)CC.Cc1ncc([N+](=O)[O-])[n-]1 [triethyloctylphosphonium 2-methyl-5-nitroimidazolide]
1005.6

Now this one: CCC=Cn1cc[n+](C)c1C.O=[N+]([O-])c1cn[n-]c1 [1-but-1-enyl-2,3-dimethylimidazolium 4-nitropyrazolide]
1154.7

Now this one: CCCCCCCCC[P+](CC)(CC)CC.O=[N+]([O-])c1cn[n-]c1 [triethylnonylphosphonium 4-nitropyrazolide]
998.2

Now this one: CC[P+](CC)(CC)COCCOC.O=[N+]([O-])c1cn[n-]c1
1112.3

Now this one: CCCC[n+]1cccn1C.O=S(=O)([N-]S(=O)(=O)C(F)(F)F)C(F)(F)F [1-butyl-2-methylpyrazolium bis(trifluoromethylsulfonyl)imide]
1413.8

// data source = the NIST ThermoML archive (doi:10.1021/acs.jced.6b00269)
